Values compiled from ChEMBL document CHEMBL1201862.

system: SNB-75; test: NCI tumour cell line growth inhibition, 48 h
Calls of active or inactive are those of the source. Rule as the data show it: active = GI50 up to about 1.1 µM and inactive = higher.
reported endpoint: GI50

compound: CC(=O)Nc1ccc2oc(=O)c3ccccc3c2c1
reported endpoint: GI50
result: > 100 µM (inactive)
//
compound: COC(=O)C(=O)C(CC(=O)Nc1cccc(C(F)(F)F)c1)C(=O)OC (stereo unspecified)
reported endpoint: GI50
result: > 100 µM (inactive)
//
compound: COc1ccc(/C(Cl)=C(\C=O)c2cc(OC)c(OC)c(OC)c2)cc1OC
reported endpoint: GI50
result: 10.8 µM (inactive)
//
compound: C[N+](C)(CCO)CCN1c2ccccc2Sc2ccccc21
reported endpoint: GI50
result: > 10 µM (inactive)
//
compound: NC1=NC(=O)C(CC(=O)Nc2ccc([N+](=O)[O-])cc2[N+](=O)[O-])S1 (stereo unspecified)
reported endpoint: GI50
result: 92.9 µM (inactive)

Now consider the entry below.
Query string: Using the record for c1c[nH]c(CN2CCOCC2)n1 , report its GI50.
Result string: > 100 µM (inactive)

====

test system: SF-268; assay: NCI tumour cell line growth inhibition, 48 h
Calls of active or inactive are those of the source. Rule as the data show it: active = GI50 up to about 1.1 µM and inactive = higher.
The entries below come with measured GI50 values attached.

Consider the reported GI50 for these compounds:
compound: COC(=O)[C@@H](O)[C@]1(C(=O)OC)C2O[C@@H](OC)[C@@H]1CCCCCC[C@H]2O
GI50: > 100 µM (inactive)
//
compound: C[N+](C)(CCO)CCN1c2ccccc2Sc2ccccc21
GI50: > 10 µM (inactive)
//
compound: COc1ccc(/C(Cl)=C(\C=O)c2cc(OC)c(OC)c(OC)c2)cc1OC
GI50: 23.8 µM (inactive)

Query string: Using the record for C/C(=N\N(C)C)C(CN(C)C)C(c1ccccc1)c1c(O)c2ccccc2oc1=O (stereo not drawn) , report its GI50.
Result string: > 100 µM (inactive)

Query string: Using the record for CSC1=C(SC)C(=O)c2cn(C)c(=O)cc2C1=O , report its GI50.
Result string: 11.8 µM (inactive)

Query string: Using the record for [O-][n+]1onc2c1/C(=N/O)CCC2 , report its GI50.
Result string: > 100 µM (inactive)

Query string: Using the record for O=[N+]([O-])C(=C(Nc1ccccc1)Nc1ccccc1)/C(Cl)=C(\Cl)Br , report its GI50.
Result string: 16.8 µM (inactive)

Query string: Using the record for CC(=O)Oc1ccc2[nH]c3c(C)c4cccc-4ccc3c2c1 , report its GI50.
Result string: 2.02 µM (inactive)

Query string: Using the record for C1CN(c2nnc(N3CCC3)nn2)C1 , report its GI50.
Result string: 90.6 µM (inactive)

Query string: Using the record for CN(C)/C=N/n1c2ccccc2c2ccccc21 , report its GI50.
Result string: > 100 µM (inactive)

Query string: Using the record for NCC(=O)C(O)C(O)C(O)CO (stereo not drawn) , report its GI50.
Result string: > 100 µM (inactive)

Query string: Using the record for N#Cc1nc(CCCCCN2C(=O)c3ccccc3C2=O)oc1N , report its GI50.
Result string: > 100 µM (inactive)

Query string: Using the record for CC(=O)Oc1c2c(c(O)c3ccccc13)C(n1cnc3c(ncn3C3OC(CO)C4OC(C)(C)OC43)c1=N)CCC2 (stereo not drawn) , report its GI50.
Result string: 16.4 µM (inactive)

====

The entries below come with measured GI50 values attached.
tested on: OVCAR-8; assay: NCI tumour cell line growth inhibition, 48 h
Active and inactive are the calls of the source. Cut-off read from the data, not from the text of the source: active = GI50 up to about 1.1 µM and inactive = higher.

Consider the reported GI50 for these molecules:
molecule: Cc1cc(Cl)ccc1C(=O)c1ccc2ccccc2c1C(=O)O
target or test system: OVCAR-8
GI50: > 100 µM (inactive)
//
molecule: COc1cc(S(=O)(=O)Nc2nc(-c3ccc(N4C(=O)C(CC(=O)O)SC4c4ccccc4O)cc3)cs2)ccc1Cl (centres undefined)
target or test system: OVCAR-8
GI50: 62.8 µM (inactive)
//
molecule: CCOC(=O)C12C(C(=O)OC)=C(C)N(NC(=O)Nc3ccccc3)C1(N)N(NC(=O)Nc1ccccc1)C(C)=C2C(=O)OC (centres undefined)
target or test system: OVCAR-8
GI50: 27.7 µM (inactive)

Query string: Using the record for COC(=O)[C@@H](O)[C@]1(C(=O)OC)C2O[C@@H](OC)[C@@H]1CCCCCC[C@H]2O , report its GI50.
Result string: > 100 µM (inactive)

====

The entries below come with measured GI50 values attached.
system: A498; experiment: NCI tumour cell line growth inhibition, 48 h
Calls of active or inactive are those of the source. No stated cut-off is given here; in the data, active = GI50 up to about 1.1 µM and inactive = higher.

compound: COc1ccc(Br)c(CCCCC(=O)O)c1
GI50: > 100 µM (inactive)
--
compound: Nc1nc(-c2ccccc2)c(CC(=O)O)s1
GI50: > 100 µM (inactive)

Now consider the entry below.
Query string: Using the record for Cn1c(N)nc(=O)c2c1N(C1OC(CO)C(O)C1O)CN2Cc1ccccc1 (stereo not drawn) , report its GI50.
Result string: > 100 µM (inactive)

====

test system: A498; assay: NCI tumour cell line growth inhibition, 48 h
Calls of active or inactive are those of the source. No stated cut-off is given here; in the data, active = GI50 up to about 1.1 µM and inactive = higher.
Your answer must be one of the following: 1 (active), -1 (inactive)

compound: COC(=O)[C@@H]1CN(C(C)=O)C(=O)N1C(=O)OCc1ccccc1
answer label: -1

compound: CCCC(=O)Nc1cc(/C=C/C(=O)N2CC(CCl)c3c2cc(O)c2[nH]cc(C)c32)n(C)c1 (stereo not given)
answer label: 1

compound: CCCCCCCCCCC(=O)CC(=O)c1c(O)cccc1O
answer label: -1

compound: CCn1c(O)c(C(=O)Nc2cccs2)c(=O)n(CC)c1=S
answer label: -1

compound: Clc1ccccc1/C=c1\nc(-c2ccccc2)n2c1nc1ccccc12
answer label: -1

compound: CCOC(=O)C12C(C(=O)OC)=C(C)N(NC(=O)Nc3ccccc3)C1(N)N(NC(=O)Nc1ccccc1)C(C)=C2C(=O)OC (stereo not given)
answer label: -1

compound: C1CN(c2nnc(N3CCC3)nn2)C1
answer label: -1

compound: Oc1c(Br)cc(/C=C/c2cccc(/C=C/c3cc(Br)c(O)c(Br)c3)n2)cc1Br
answer label: -1

Query string: Test call, this compound: CCNC(=O)C(C)C1CCC2(C)C=CC(=O)C(C)=C2C1O (stereo not given)
Result string: -1

Query string: Test call, this compound: c1ccc2[nH]c3nc4ccccc4c-3cc2c1
Result string: -1

====

test system: A498; assay: NCI tumour cell line growth inhibition, 48 h
The source made the active and inactive calls. Rule as the data show it: active = GI50 up to about 1.1 µM and inactive = higher.
The entries below come with measured GI50 values attached.

Query string: Using the record for N#C/C(C(=O)NCc1ccccc1)=C(/N)N1CCCC1 , report its GI50.
Result string: 94.8 µM (inactive)

Query string: Using the record for Cc1nnc(CC#N)n1NC(=O)CC#N , report its GI50.
Result string: > 100 µM (inactive)

====

system: KM12; test: NCI tumour cell line growth inhibition, 48 h
Active and inactive are the calls of the source. No stated cut-off is given here; in the data, active = GI50 up to about 1.1 µM and inactive = higher.
The entries below come with measured GI50 values attached.

Consider the reported GI50 for these compounds:
compound: CC(C)(CO)NC(=O)c1cccs1
result: > 100 µM (inactive)
//
compound: CCOC(=O)C1=NN(c2ccc(C)cc2)C2(c3ccccc3)C=C(c3ccccc3)N(C)CCN12 (stereo not drawn)
result: 48.5 µM (inactive)

Now consider the entry below.
Query string: Using the record for O=C1Sc2ccc(Br)cc2C(=O)Sc2ccccc21 , report its GI50.
Result string: 16 µM (inactive)

====

tested on: SW-620; experiment: NCI tumour cell line growth inhibition, 48 h
Active and inactive are the calls of the source. No stated cut-off is given here; in the data, active = GI50 up to about 1.1 µM and inactive = higher.
The entries below come with measured GI50 values attached.

molecule: O=C(Nc1cccc([N+](=O)[O-])c1)C(=O)C(C(=O)c1ccccc1-c1ccccc1)C1OC(=O)c2ccccc21 (stereo not drawn)
GI50: 27.2 µM (inactive)

Query string: Using the record for CCOC(=O)c1nc2ccc(C(F)(F)F)cc2nc1Nc1ccc(OC)cc1 , report its GI50.
Result string: > 100 µM (inactive)

Query string: Using the record for O=C(CCN1CCCC1)CC(c1ccccc1)c1c(O)c2ccccc2oc1=O (stereo not drawn) , report its GI50.
Result string: > 100 µM (inactive)

====

The entries below come with measured GI50 values attached.
tested on: SNB-78; experiment: NCI tumour cell line growth inhibition, 48 h
Calls of active or inactive are those of the source. No stated cut-off is given here; in the data, active = GI50 up to about 1.1 µM and inactive = higher.

Consider the reported GI50 for these compounds:
compound: COC(=O)[C@@]12C(=O)CCC(=O)C1C1C(=CC2C)O[C@@H]2OC3(CCCCC3)O[C@H]12 (some centres undefined)
GI50: > 100 µM (inactive)

compound: O=C(CC1(O)C(=O)Nc2ccccc21)c1ccco1 (centres undefined)
GI50: > 100 µM (inactive)

compound: COc1ccc(/C(Cl)=C/c2ccc(Cl)c(Cl)c2)cc1
GI50: 23.6 µM (inactive)

compound: CC(C)[C@](O)(C(=O)OCC1CC[N+]2([O-])CC[C@@H](O)C12)[C@H](C)O (some centres undefined)
GI50: > 375 µM (inactive)

compound: O/N=C(\C(=N/O)Nc1ccc(-c2ccc(NC(=N/O)/C(=N\O)c3ccccc3)cc2)cc1)c1ccccc1
GI50: 30.8 µM (inactive)

compound: O=NN(CCCl)C(=O)Nc1ccc(Cl)c(Cl)c1
GI50: > 56.9 µM (inactive)

Query string: Using the record for CC(C)N(C(=O)C12C3C4C5(C#N)C3C1(I)C5C42I)C(C)C (centres undefined) , report its GI50.
Result string: 67.9 µM (inactive)

Query string: Using the record for Cc1ccc(SSc2ccc(C)cc2C(=O)O)c(C(=O)O)c1 , report its GI50.
Result string: > 100 µM (inactive)

Query string: Using the record for COc1cc2c(oc(=O)c3cc4cc([Si](C)(C)C)oc4c(OC)c32)c2cccc(O)c12 , report its GI50.
Result string: > 100 µM (inactive)
